# System: Vero
# protocolSummary: Cytotoxicity against African green monkey Vero cells assessed as cell viability after 72 hrs by CellTiter 96 assay
# Type: cell-based
# conditionContext: Chlorocebus sabaeus
I'd appreciate it if you could supply IC50 values for the items below.

Task: Request body: readout IC50, system Vero, query Cc1cc(C)n2nc(C(=O)NCc3ccccc3)nc2n1 . Return the value.
Output: > 128 µM

Task: What do you have for Cc1ccn2c(C)c(C(=O)NCc3ccccc3)nc2c1 ?
Output: > 128 µM

Task: Next entry: Cc1ccn2c(C(=O)NCc3ccccc3)nnc2c1
Output: > 128 µM

---

# Tested on: Mycobacteroides chelonae
# protocolSummary: Antimycobacterial activity against Mycobacterium chelonae ATCC 35752 in 7H9 medium after 3 days and 4 hrs after adding resazurin dye/Tween 80 by Microplate Alamar Blue assay
# Assay type: functional
readoutType: MIC

Task: Dear colleague, I am looking for the recorded MIC of the following molecule: CO[C@H]1/C=C/O[C@@]2(C)Oc3c(C)c(O)c4c(O)c(c(/C=N/N5CCN(C)CC5)c(O)c4c3C2=O)NC(=O)/C(C)=C\C=C\[C@H](C)[C@H](O)[C@@H](C)[C@@H](O)[C@@H](C)[C@H](OC(C)=O)[C@@H]1C
Output: > 100 µM

Task: Item: Cc1ccc2c(C(=O)NCc3ccccc3)c(C)[nH]c2c1
Output: > 128 µM

Task: Check Cc1cnc2nc(C)c(C(=O)NCc3ccccc3)n2c1 too.
Output: > 128 µM

Task: // next record Cc1ccc2nc(C)c(C(=O)NCc3ccccc3)n2c1
Output: 94 µM

Task: Also, Cc1ccn2c(C(=O)NCc3ccccc3)nnc2c1 please.
Output: > 128 µM

Task: // next record Cc1ccc2c(C(=O)NCc3ccccc3)n[nH]c2c1
Output: > 128 µM

Task: Param item: NNC(=O)c1ccncc1
Output: > 500 µM

Task: Input Cc1ccn2c(C)c(C(=O)NCc3ccccc3)nc2c1
Output: > 128 µM

Task: Cc1cc(C)n2nc(C(=O)NCc3ccccc3)nc2n1 , same question.
Output: > 128 µM

Task: Query COc1c(N2C[C@@H]3CCCN[C@@H]3C2)c(F)cc2c(=O)c(C(=O)O)cn(C3CC3)c12 next
Output: 0.24 µM

Task: Item: Cc1ccc2nc(C)c(C(=O)NCc3ccccc3)n2n1
Output: > 128 µM
